Where do these numbers come from? They come from the RNAGym collection of RNA variant scans (doi:10.7554/elife.80360).

B1: HDV Ribozyme (parent)
chain: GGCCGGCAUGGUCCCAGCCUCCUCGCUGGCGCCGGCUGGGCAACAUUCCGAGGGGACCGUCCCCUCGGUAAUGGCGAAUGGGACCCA

Variants of: B1
Experiment: self-cleavage, relative activity (ratio to wild type); higher = more cleavage; co-transcriptional
Use 0.2 as the dividing line for self-cleavage, with the line itself on the criterion met side and lower values as criterion not met.

[
  {
    "Variant name": "G54A G82C",
    "Label class": "criterion met"
  },
  {
    "Variant name": "A71G C84G",
    "Label class": "criterion met"
  },
  {
    "Variant name": "G5A U65A",
    "Label class": "criterion met"
  },
  {
    "Variant name": "G10U G74A",
    "Label class": "criterion not met"
  },
  {
    "Variant name": "A42U A71C",
    "Label class": "criterion met"
  },
  {
    "Variant name": "C19U G68A",
    "Label class": "criterion not met"
  },
  {
    "Variant name": "G17U A78C",
    "Label class": "criterion not met"
  },
  {
    "Variant name": "A45U A78G",
    "Label class": "criterion met"
  },
  {
    "Variant name": "U20A C58G",
    "Label class": "criterion not met"
  },
  {
    "Variant name": "C13A C85U",
    "Label class": "criterion not met"
  },
  {
    "Variant name": "U12G G76U",
    "Label class": "criterion met"
  },
  {
    "Variant name": "A43U A71C",
    "Label class": "criterion met"
  },
  {
    "Variant name": "G53A C85U",
    "Label class": "criterion met"
  },
  {
    "Variant name": "C7U G28C",
    "Label class": "criterion met"
  },
  {
    "Variant name": "G40C A70U",
    "Label class": "criterion not met"
  },
  {
    "Variant name": "C26G A78U",
    "Label class": "criterion met"
  },
  {
    "Variant name": "G6A G39C",
    "Label class": "criterion not met"
  },
  {
    "Variant name": "C15U G59C",
    "Label class": "criterion met"
  },
  {
    "Variant name": "G35U C75A",
    "Label class": "criterion not met"
  },
  {
    "Variant name": "G68A U69A",
    "Label class": "criterion met"
  },
  {
    "Variant name": "C19U G55A",
    "Label class": "criterion met"
  },
  {
    "Variant name": "U65A G74C",
    "Label class": "criterion met"
  },
  {
    "Variant name": "G17C C75A",
    "Label class": "criterion not met"
  },
  {
    "Variant name": "C49G G80A",
    "Label class": "criterion met"
  },
  {
    "Variant name": "U65G A83C",
    "Label class": "criterion met"
  },
  {
    "Variant name": "G1C A87U",
    "Label class": "criterion not met"
  },
  {
    "Variant name": "C62A A78U",
    "Label class": "criterion not met"
  },
  {
    "Variant name": "A43C C86G",
    "Label class": "criterion met"
  },
  {
    "Variant name": "G28A U79G",
    "Label class": "criterion not met"
  },
  {
    "Variant name": "C61U A70G",
    "Label class": "criterion met"
  },
  {
    "Variant name": "G50C G73C",
    "Label class": "criterion met"
  },
  {
    "Variant name": "C49U G67U",
    "Label class": "criterion met"
  },
  {
    "Variant name": "U12G U69G",
    "Label class": "criterion met"
  },
  {
    "Variant name": "G1C C13A",
    "Label class": "criterion not met"
  },
  {
    "Variant name": "C63U C64U",
    "Label class": "criterion met"
  },
  {
    "Variant name": "C4A G76U",
    "Label class": "criterion met"
  },
  {
    "Variant name": "G31U A43U",
    "Label class": "criterion not met"
  },
  {
    "Variant name": "U23C C58U",
    "Label class": "criterion met"
  },
  {
    "Variant name": "C57U A70G",
    "Label class": "criterion met"
  },
  {
    "Variant name": "G5U C24A",
    "Label class": "criterion not met"
  },
  {
    "Variant name": "A16G A78U",
    "Label class": "criterion not met"
  },
  {
    "Variant name": "A42G U60G",
    "Label class": "criterion met"
  },
  {
    "Variant name": "G59C G81U",
    "Label class": "criterion met"
  },
  {
    "Variant name": "G6A A51G",
    "Label class": "criterion met"
  },
  {
    "Variant name": "G38U A83C",
    "Label class": "criterion not met"
  },
  {
    "Variant name": "G34C U72G",
    "Label class": "criterion met"
  }
]
